Biological target: ATP-dependent translocase ABCB1 (Homo sapiens, UniProt P08183)
Sequence (P08183 whole entry): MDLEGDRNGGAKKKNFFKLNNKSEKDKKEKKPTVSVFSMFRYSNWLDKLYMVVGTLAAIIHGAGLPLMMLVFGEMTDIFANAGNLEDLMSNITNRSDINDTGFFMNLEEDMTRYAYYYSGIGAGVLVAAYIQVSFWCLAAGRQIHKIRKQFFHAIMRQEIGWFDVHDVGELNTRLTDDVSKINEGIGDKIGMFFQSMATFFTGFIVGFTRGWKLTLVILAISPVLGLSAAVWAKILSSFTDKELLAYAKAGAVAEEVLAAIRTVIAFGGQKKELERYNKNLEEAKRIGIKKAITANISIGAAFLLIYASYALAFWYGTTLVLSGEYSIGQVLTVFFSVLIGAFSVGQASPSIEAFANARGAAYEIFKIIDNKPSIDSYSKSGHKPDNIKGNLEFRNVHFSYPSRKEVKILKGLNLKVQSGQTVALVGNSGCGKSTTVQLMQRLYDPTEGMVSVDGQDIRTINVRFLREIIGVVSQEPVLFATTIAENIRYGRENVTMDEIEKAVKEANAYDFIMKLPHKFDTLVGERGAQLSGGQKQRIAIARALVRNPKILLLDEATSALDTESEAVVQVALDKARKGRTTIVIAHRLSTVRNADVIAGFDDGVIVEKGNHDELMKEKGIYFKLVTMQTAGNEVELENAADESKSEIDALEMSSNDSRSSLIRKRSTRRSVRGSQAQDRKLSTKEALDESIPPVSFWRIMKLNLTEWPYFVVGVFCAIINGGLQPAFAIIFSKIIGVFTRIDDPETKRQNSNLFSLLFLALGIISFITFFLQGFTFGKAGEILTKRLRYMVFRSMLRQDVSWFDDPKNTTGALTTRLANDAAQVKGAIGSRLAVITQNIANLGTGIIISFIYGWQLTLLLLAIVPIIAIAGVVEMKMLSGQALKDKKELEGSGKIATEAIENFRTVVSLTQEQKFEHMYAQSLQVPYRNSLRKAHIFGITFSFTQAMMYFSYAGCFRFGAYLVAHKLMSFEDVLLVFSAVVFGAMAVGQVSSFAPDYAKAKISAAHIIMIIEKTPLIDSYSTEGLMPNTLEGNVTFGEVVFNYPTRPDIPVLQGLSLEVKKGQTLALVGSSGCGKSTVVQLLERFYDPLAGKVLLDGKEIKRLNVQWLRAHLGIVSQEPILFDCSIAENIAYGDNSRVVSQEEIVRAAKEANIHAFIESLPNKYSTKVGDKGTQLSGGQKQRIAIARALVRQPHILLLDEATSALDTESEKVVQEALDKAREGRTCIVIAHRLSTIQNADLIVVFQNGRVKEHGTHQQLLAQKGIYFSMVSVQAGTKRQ
Experiment: Inhibition of human MDR1 expressed in mouse NIH/3T3 cells assessed as reduction in vinblastine IC50 at 3 uM by MTT assay
Assay type: cell-based
Conditions: nih3t3, 3 µM
measured endpoint: fold change (FC)

1) CC(=O)O[C@H]1CC[C@](C)(O)[C@]23OC(C)(C)[C@H]([C@H](OC(=O)/C=C/c4ccccc4)[C@H](OC(=O)c4ccccc4)[C@]12C)[C@H]3OC(=O)N(C)C    37.7

a: CC(=O)O[C@H]1CC[C@](C)(O)[C@]23OC(C)(C)[C@H]([C@H](OC(=O)/C=C\c4ccccc4)[C@H](OC(=O)c4ccccc4)[C@]12C)[C@H]3OC(=O)c1cnccn1
b: CC(=O)O[C@H]1CC[C@]2(C)O[C@@H]3[C@H]4[C@H](OC(=O)/C=C/c5ccccc5)[C@H](OC(=O)c5ccccc5)[C@@]1(C)[C@]32OC4(C)C
Consider entries a and b . Which has the numerically lower fold change (FC)? # reply format: chosen label
a
(a: 18.7, b: 75.8)

---

Target: ATP-dependent translocase ABCB1 (Homo sapiens)
Test: Inhibition of human MDR1 expressed in mouse NIH/3T3 cells assessed as reduction in vinblastine IC50 at 3 uM by MTT assay
Assay type: cell-based
Details: nih3t3, 3 µM
measured endpoint: fold change (FC)

Worked set:
1) CC(=O)O[C@H]1CC[C@](C)(OC(=O)CN2CCOCC2)[C@]23OC(C)(C)[C@H]([C@H](OC(=O)/C=C/c4ccccc4)[C@H](OC(=O)c4ccccc4)[C@]12C)[C@H]3OC(C)=O    49.6
2) CC(=O)O[C@H]1CC[C@](C)(O)[C@]23OC(C)(C)[C@H]([C@H](OC(=O)/C=C/c4ccccc4)[C@H](OC(=O)c4ccccc4)[C@]12C)[C@H]3O    30.3

A: COC(=O)CCCC(=O)O[C@@H]1[C@H]2[C@H](OC(=O)/C=C/c3ccccc3)[C@H](OC(=O)c3ccccc3)[C@]3(C)[C@@H](OC(C)=O)CC[C@](C)(O)[C@@]13OC2(C)C
B: CC(=O)O[C@H]1CC[C@](C)(O)[C@]23OC(C)(C)[C@H]([C@H](OC(=O)/C=C/c4ccccc4)[C@H](OC(=O)c4ccccc4)[C@]12C)[C@H]3OS(C)(=O)=O
C: CC(=O)O[C@H]1CC[C@](C)(O)[C@]23OC(C)(C)[C@H]([C@H](OC(=O)/C=C\c4ccccc4)[C@H](OC(=O)c4ccccc4)[C@]12C)[C@H]3OC(C)=O
I would appreciate it if you could sort these 3 compounds by fold change (FC), starting from the smallest number. Return the labels ranked in the requested order, please.
C, A, B

---

Target: UniProtKB P08183
Assay: Inhibition of human MDR1 expressed in mouse NIH/3T3 cells assessed as reduction in daunomycin IC50 at 10 uM by MTT assay
Type: cell-based
Conditions: nih3t3, 10 µM
measured endpoint: fold change (FC)

Worked set:
1. CC(=O)O[C@H]1CC[C@](C)(O)[C@]23OC(C)(C)[C@H]([C@H](OC(=O)/C=C/c4ccccc4)[C@H](OC(=O)c4ccccc4)[C@]12C)[C@H]3OS(C)(=O)=O    16.3
2. CC(=O)O[C@H]1CC[C@](C)(O)[C@]23OC(C)(C)[C@H]([C@H](OC(=O)CCc4ccccc4)[C@H](OC(=O)c4ccccc4)[C@]12C)[C@H]3O    11.6
3. CC(=O)O[C@H]1CC[C@](C)(O)[C@]23OC(C)(C)[C@H]([C@H](OC(=O)/C=C\c4ccccc4)[C@H](OC(=O)c4ccccc4)[C@]12C)[C@H]3OC(=O)c1ccccc1    14.7
4. CC(=O)O[C@H]1CC[C@]2(C)O[C@@H]3[C@H]4[C@H](OC(=O)/C=C/c5ccccc5)[C@H](OC(=O)c5ccccc5)[C@@]1(C)[C@]32OC4(C)C    15.6
5. CC(=O)O[C@H]1CC[C@](C)(OC(=O)CNCC(C)C)[C@]23OC(C)(C)[C@H]([C@H](OC(=O)/C=C/c4ccccc4)[C@H](OC(=O)c4ccccc4)[C@]12C)[C@H]3OC(C)=O    22.2
6. CC(=O)O[C@H]1CC[C@](C)(O)[C@]23OC(C)(C)[C@H]([C@H](OC(=O)/C=C/c4ccccc4)[C@H](OC(=O)c4ccccc4)[C@]12C)[C@H]3OC(=O)CCC(=O)OC1CCCCC1O (stereo partly specified)    12.8
7. CC(=O)O[C@H]1CC[C@](C)(O)[C@]23OC(C)(C)[C@H]([C@H](OC(=O)/C=C/c4ccccc4)[C@H](OC(=O)c4ccccc4)[C@]12C)[C@H]3OC(=O)CCC(=O)OCCO    10.6
8. CC(=O)O[C@H]1CC[C@](C)(Cl)[C@]23OC(C)(C)[C@H]([C@H](OC(=O)/C=C/c4ccccc4)[C@H](OC(=O)c4ccccc4)[C@]12C)[C@H]3Cl    14.8
9. CC(=O)O[C@H]1CC[C@](C)(O)[C@]23OC(C)(C)[C@H]([C@H](OC(=O)/C=C/c4ccccc4)[C@H](OC(=O)c4ccccc4)[C@]12C)[C@H]3O    15.1

P: CC(=O)O[C@H]1CC[C@](C)(OC(=O)CN2CCOCC2)[C@]23OC(C)(C)[C@H]([C@H](OC(=O)/C=C/c4ccccc4)[C@H](OC(=O)c4ccccc4)[C@]12C)[C@H]3OC(C)=O
Q: CC(=O)O[C@H]1CC[C@](C)(O)[C@]23OC(C)(C)[C@H]([C@H](OC(=O)/C=C\c4ccccc4)[C@H](OC(=O)c4ccccc4)[C@]12C)[C@H]3OC(C)=O
Consider entries P and Q . Which has the numerically lower fold change (FC)? # reply format: chosen label
P

// data source = ChEMBL document CHEMBL3774328
